Ref: patent US20110097323A1

Target: T1, CD32B (FcγRII-B) (UniProt P31994 43-217, limits assumed)
T1 construct: No species or construct stated
T1 sequence (looked up): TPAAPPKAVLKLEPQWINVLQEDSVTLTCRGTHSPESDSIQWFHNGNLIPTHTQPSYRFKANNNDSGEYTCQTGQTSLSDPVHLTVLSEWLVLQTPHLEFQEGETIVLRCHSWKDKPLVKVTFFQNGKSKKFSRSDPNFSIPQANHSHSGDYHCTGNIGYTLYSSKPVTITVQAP
Test: Table 3; relative to wild-type Fc; method not stated
Listed below: binding relative to wild-type Fc (fold) values for each entry.

Binder	Reported Result
Fc variant D270E K392T P396L (other, UniProt P01857-1 99-330, looked up, name in EU numbering, domain: Fc region; positions are EU index) EPKSCDKTHTCPPCPAPELLGGPSVFLFPPKPKDTLMISRTPEVTCVVVDVSHEEPEVKFNWYVDGVEVHNAKTKPREEQYNSTYRVVSVLTVLHQDWLNGKEYKCKVSNKALPAPIEKTISKAKGQPREPQVYTLPPSRDELTKNQVSLTCLVKGFYPSDIAVEWESNGQPENNYTTTPLVLDSDGSFFLYSKLTVDKSRWQQGNVFSCSVMHEALHNHYTQKSLSLSPGK	0.79
Fc variant R255L D270E Y300L P396L (other, UniProt P01857-1 99-330, looked up, name in EU numbering, domain: Fc region; positions are EU index) EPKSCDKTHTCPPCPAPELLGGPSVFLFPPKPKDTLMISLTPEVTCVVVDVSHEEPEVKFNWYVDGVEVHNAKTKPREEQYNSTLRVVSVLTVLHQDWLNGKEYKCKVSNKALPAPIEKTISKAKGQPREPQVYTLPPSRDELTKNQVSLTCLVKGFYPSDIAVEWESNGQPENNYKTTPLVLDSDGSFFLYSKLTVDKSRWQQGNVFSCSVMHEALHNHYTQKSLSLSPGK	0.87

Turning to the following binder.
Any idea what its binding relative to wild-type Fc (fold) is? The binder is Fc variant R255L D270E P396L (other, UniProt P01857-1 99-330, looked up, name in EU numbering, domain: Fc region; positions are EU index) EPKSCDKTHTCPPCPAPELLGGPSVFLFPPKPKDTLMISLTPEVTCVVVDVSHEEPEVKFNWYVDGVEVHNAKTKPREEQYNSTYRVVSVLTVLHQDWLNGKEYKCKVSNKALPAPIEKTISKAKGQPREPQVYTLPPSRDELTKNQVSLTCLVKGFYPSDIAVEWESNGQPENNYKTTPLVLDSDGSFFLYSKLTVDKSRWQQGNVFSCSVMHEALHNHYTQKSLSLSPGK 0.87
